Test system: promoter region including the HSE sequence for HSP47
assay-details: Reporter protein expression suppression, stable transformant A (HSE/HSP47 promoter β-galactosidase)
Type: cell-based, Chinese hamster
reported-conditions: 5 μM; heat shock 42° C. 90 min; relative to DMSO
Experimental: A plasmid was produced in which a β-galactosidase gene was located downstream of a promoter region including the HSE sequence for HSP47. […] Then, the fluorescence was measured (excitation at 365 nm, emission at 450 nm). […]
Please mark 1 (yes) if the recorded Expression Rate (%) Transformant A is equal to or greater than 50%, and 0 (no) if it falls below.

compound: O=CN1CC/C(=C\c2ccc3c(c2)OCO3)C1=O
label-class: 1 (yes)
//
compound: O=C1NCC/C1=C\c1ccc2c(c1)OCO2
label-class: 0 (no)
//
compound: O=c1c(O)c(-c2ccc(O)c(O)c2)oc2cc(O)cc(O)c12 [Quercetin, quercetin, reference compound]
label-class: 1 (yes)
//
compound: CC(=O)N1CCC(=Cc2ccc3c(c2)OCO3)C1=O
label-class: 0 (no)
//
compound: O=C1NCCC/C1=C\c1ccc2c(c1)OCO2
label-class: 0 (no)
